Each entry below lists one item and its recorded kon value.
# TGT: T1, rhesus monkey CD22-ECD-His protein (rhesus monkey, UniProt H9G1X2 18-686)
# T1 construct: extracellular domain; also called monkey CD22 protein
# T1 sequence: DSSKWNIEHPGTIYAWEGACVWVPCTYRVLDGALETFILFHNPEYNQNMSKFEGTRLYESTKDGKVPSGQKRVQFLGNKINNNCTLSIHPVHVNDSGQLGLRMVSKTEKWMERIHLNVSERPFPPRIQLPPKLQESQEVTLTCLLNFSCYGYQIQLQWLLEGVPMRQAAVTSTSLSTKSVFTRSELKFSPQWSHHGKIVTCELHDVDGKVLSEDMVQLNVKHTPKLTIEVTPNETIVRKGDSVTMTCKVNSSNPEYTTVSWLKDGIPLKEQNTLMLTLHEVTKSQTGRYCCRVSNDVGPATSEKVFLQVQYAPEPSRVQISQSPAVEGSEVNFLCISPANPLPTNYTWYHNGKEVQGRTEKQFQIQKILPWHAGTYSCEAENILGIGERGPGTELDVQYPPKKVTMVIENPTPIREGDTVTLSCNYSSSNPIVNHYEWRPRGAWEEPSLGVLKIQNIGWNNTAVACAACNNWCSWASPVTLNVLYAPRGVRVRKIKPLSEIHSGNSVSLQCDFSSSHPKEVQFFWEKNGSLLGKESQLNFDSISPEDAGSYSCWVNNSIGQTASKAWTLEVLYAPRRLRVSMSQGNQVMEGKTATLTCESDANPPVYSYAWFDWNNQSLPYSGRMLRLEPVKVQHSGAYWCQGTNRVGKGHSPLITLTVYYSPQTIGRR
# MEASUREMENT PROTOCOL: SPR (Biacore), antibody captured on Protein A chip, rhesus CD22 in solution
PARAMETER MEASURED: kon (M⁻¹ s⁻¹)

- F1.200.11 (antibody, human IgG1, kappa, V domains shown, Chimeric IgG1 kappa) VH: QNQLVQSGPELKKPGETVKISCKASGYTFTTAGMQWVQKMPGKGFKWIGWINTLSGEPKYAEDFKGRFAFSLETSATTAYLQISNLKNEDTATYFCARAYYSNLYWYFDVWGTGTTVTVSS VL: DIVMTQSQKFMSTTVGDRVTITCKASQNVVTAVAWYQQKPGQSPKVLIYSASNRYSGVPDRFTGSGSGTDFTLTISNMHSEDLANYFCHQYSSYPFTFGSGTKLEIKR: 13500
- F1.216.2 (antibody, human IgG1, kappa, V domains shown, Chimeric IgG1 kappa) VH: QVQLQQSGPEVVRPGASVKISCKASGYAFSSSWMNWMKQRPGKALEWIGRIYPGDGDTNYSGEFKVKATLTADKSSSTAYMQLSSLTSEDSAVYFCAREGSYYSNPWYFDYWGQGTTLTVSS VL: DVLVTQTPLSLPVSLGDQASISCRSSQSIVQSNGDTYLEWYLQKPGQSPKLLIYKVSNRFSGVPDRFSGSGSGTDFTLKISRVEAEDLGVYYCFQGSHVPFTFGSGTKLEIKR: 74900
